# protocol-notes: Calcium Liability (Tolerance Test in Mice)
# study-conditions: mouse, in vivo, sc
Values of MTD greater than or equal to 0.3 mg/kg map to 1.0; values below map to 0.0.

Examples with answers:
Prompt: Check the entry CC(C)(CC#CC(O)(C(F)(F)F)C(F)(F)F)CCC/C=C/C=C1C[C@@H](O)C[C@H](O)C1 : does MTD equal or exceed 0.3 mg/kg?
Response: 1.0

Prompt: Check the entry CC(C)(C/C=C\C(O)(C(F)(F)F)C(F)(F)F)CCC/C=C/C=C1C[C@@H](O)C[C@H](O)C1 : does MTD equal or exceed 0.3 mg/kg?
Response: 1.0

Prompt: Check the entry CC(C)(CCC/C=C/C=C1C[C@@H](O)C[C@H](O)C1)CCCC(O)(C(F)(F)F)C(F)(F)F : does MTD equal or exceed 0.3 mg/kg?
Response: 0.0

Prompt: Check the entry C=C1/C(=C\C=C\CCCC(C)(C)CCCC(C)(C)O)C[C@@H](O)C[C@@H]1O : does MTD equal or exceed 0.3 mg/kg?
Response: 1.0

Prompt: Check the entry CC(C)(O)C#CCC(C)(C)CCC/C=C/C=C1C[C@@H](O)C[C@H](O)C1 : does MTD equal or exceed 0.3 mg/kg?
Response: 1.0

Next:
Prompt: Check the entry CC(C)(C/C=C/C(O)(C(F)(F)F)C(F)(F)F)CCC/C=C/C=C1C[C@@H](O)C[C@H](O)C1 : does MTD equal or exceed 0.3 mg/kg?
Response: 0.0

Prompt: Check the entry CC(C)(O)CCCC(C)(C)CCC/C=C/C=C1C[C@@H](O)C[C@H](O)C1 : does MTD equal or exceed 0.3 mg/kg?
Response: 1.0

Prompt: Check the entry C=C1/C(=C\C=C\CCCC(C)(C)CCCC(O)(C(F)(F)F)C(F)(F)F)C[C@@H](O)C[C@@H]1O : does MTD equal or exceed 0.3 mg/kg?
Response: 0.0

###

# Test system: epidermal proliferation in minipigs
# protocol-notes: animal or person
# study-conditions: minipigs, oral; calcemic dose / effective dose
The entries below are paired with their reported TI (ratio Calc./Eff.).

Prompt: Query: TI (ratio Calc./Eff.); subject: C=C1/C(=C\C=C\CCCC(C)(C)CC#CC(O)(C(F)(F)F)C(F)(F)F)C[C@@H](O)C[C@@H]1O
Response: > 3

Prompt: Query: TI (ratio Calc./Eff.); subject: CC(C)(C/C=C\C(O)(C(F)(F)F)C(F)(F)F)CCC/C=C/C=C1C[C@@H](O)C[C@H](O)C1
Response: 50

Prompt: Query: TI (ratio Calc./Eff.); subject: CC(C)(CC#CC(O)(C(F)(F)F)C(F)(F)F)CCC/C=C/C=C1C[C@@H](O)C[C@H](O)C1
Response: 6

Prompt: Query: TI (ratio Calc./Eff.); subject: C=C1/C(=C\C=C\CCCC(C)(C)CCCC(O)(C(F)(F)F)C(F)(F)F)C[C@@H](O)C[C@@H]1O
Response: 5

// below: TI (ratio Calc./Eff.) requested for another compound
Prompt: Query: TI (ratio Calc./Eff.); subject: C=C1/C(=C\C=C\CCCC(C)(C)C/C=C\C(O)(C(F)(F)F)C(F)(F)F)C[C@@H](O)C[C@@H]1O
Response: 2

###

# protocol-notes: in vivo
# study-conditions: mouse, po
assay-readout: MTD (mg/kg)
Answer format: numeric, mg/kg implied, no suffix.

Prompt: Query: MTD; subject: C=C1/C(=C\C=C\CCCC(C)(C)CCCC(C)(C)O)C[C@@H](O)C[C@@H]1O [G]
Response: 20

Reference for the values: patent US6184422A
